Data credit: patent US20100041665A1

- assayed.target: Recombinant human glycogen synthase kinase 3 beta (Homo sapiens)
- assay.comment: GSK-3 beta inhibition assay
- Type: biochemical
- conditions: 0.5 h, compound at 50 μM; percentage of enzyme activity

molecule: COc1ccc(C(=O)NC(=N)n2cccn2)cc1N(C/C=C(\C)CCC=C(C)C)C/C=C(\C)CCC=C(C)C [Compound 41]
remaining activity at 50 µM / %: 98.4
//
molecule: CC(C)=CCCC(C)=CCNc1cccc(C(=O)O)c1 [Compound 13]
remaining activity at 50 µM / %: 35.5
//
molecule: COc1ccc(C(=O)O)cc1NC/C=C(\C)CC/C=C(\C)CCC=C(C)C [Compound 5]
remaining activity at 50 µM / %: 52.8
//
molecule: COc1ccccc1N(C/C=C(\C)CCC=C(C)C)C/C=C(\C)CCC=C(C)C [Compound 27]
remaining activity at 50 µM / %: 59.6

---

Parameter: remaining activity at 50 µM. Scope: all listed entries.
- assayed.target: Recombinant human glycogen synthase kinase 3 beta (Homo sapiens)
- assay.comment: GSK-3 beta inhibition assay
- Type: biochemical
- conditions: 0.5 h, compound at 50 μM; percentage of enzyme activity

chemical.string: COC(=O)c1ccc(O)c(N(C/C=C(\C)CCC=C(C)C)C/C=C(\C)CCC=C(C)C)c1
unit.symbol: %
remaining activity at 50 µM: 40.4
--
chemical.string: COc1ccc(C(=O)/N=C(\N)NCCCO)cc1N(C/C=C(\C)CCC=C(C)C)C/C=C(\C)CCC=C(C)C
unit.symbol: %
remaining activity at 50 µM: 111
--
chemical.string: CCCOc1ccc(C(=O)OC)cc1NC/C=C(\C)CC/C=C(\C)CCC=C(C)C
unit.symbol: %
remaining activity at 50 µM: 98.2
--
chemical.string: COc1ccc(C(=O)O)cc1N(CC=C(C)CCC=C(C)CCC=C(C)C)CC=C(C)CCC=C(C)CCC=C(C)C
unit.symbol: %
remaining activity at 50 µM: 15.3

---

The reader will find reported remaining activity at 50 µM values listed item by item below.
- assayed.target: Recombinant human glycogen synthase kinase 3 beta (Homo sapiens, UniProt P49841)
- Sequence (P49841 whole entry): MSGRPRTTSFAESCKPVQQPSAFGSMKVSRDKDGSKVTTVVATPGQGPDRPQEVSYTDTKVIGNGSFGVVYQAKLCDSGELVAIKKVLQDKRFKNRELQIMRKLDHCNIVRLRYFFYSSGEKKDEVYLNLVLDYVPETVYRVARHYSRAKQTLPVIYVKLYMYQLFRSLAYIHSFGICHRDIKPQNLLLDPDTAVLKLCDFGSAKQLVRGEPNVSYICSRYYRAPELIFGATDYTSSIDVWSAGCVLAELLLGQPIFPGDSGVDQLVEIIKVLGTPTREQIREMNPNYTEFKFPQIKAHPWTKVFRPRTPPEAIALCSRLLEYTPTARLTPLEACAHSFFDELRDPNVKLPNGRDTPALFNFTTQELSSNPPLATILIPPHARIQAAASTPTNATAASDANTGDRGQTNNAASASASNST
- assay.comment: GSK-3 beta inhibition assay
- Assay type: biochemical
- conditions: 0.5 h, compound at 50 μM; percentage of enzyme activity

molecule: CCCOc1ccc(C(=O)OC)cc1N(C/C=C(\C)CC/C=C(\C)CCC=C(C)C)CCC [Compound 44]
unit.symbol: %
remaining activity at 50 µM: 8.26
--
molecule: COCOc1ccc(C(=O)OC)cc1NC/C=C(\C)CC/C=C(\C)CCC=C(C)C [Compound 14]
unit.symbol: %
remaining activity at 50 µM: 25.4
--
molecule: CC(C)=CCC/C(C)=C/CC/C(C)=C/CNc1cccc(C(=O)O)c1 [Compound 9]
unit.symbol: %
remaining activity at 50 µM: 39.6
--
molecule: COC(=O)c1ccc(O)c(N(CC=C(C)CCC=C(C)CCC=C(C)C)CC=C(C)CCC=C(C)CCC=C(C)C)c1 [Compound 28]
unit.symbol: %
remaining activity at 50 µM: 20.7
--
molecule: COC(=O)c1cccc(NC/C=C(\C)CC/C=C(\C)CCC=C(C)C)c1 [Compound 7]
unit.symbol: %
remaining activity at 50 µM: 54.7
--
molecule: COC(=O)c1ccc(OC)c(N(CC=C(C)CCC=C(C)CCC=C(C)C)C(=O)OC(C)(C)C)c1 [Compound 33]
unit.symbol: %
remaining activity at 50 µM: 19.8
--
molecule: COc1ccc(C(=O)NCCCO)cc1N(C/C=C(\C)CCC=C(C)C)C/C=C(\C)CCC=C(C)C [Compound 42]
unit.symbol: %
remaining activity at 50 µM: 110
--
molecule: COC(=O)c1ccc(OC)c(NCC=C(C)CCC=C(C)CCC=C(C)CCC=C(C)C)c1 [Compound 34]
unit.symbol: %
remaining activity at 50 µM: 19.1

---

- assayed.target: Recombinant human glycogen synthase kinase 3 beta (Homo sapiens)
- assay.comment: GSK-3 beta inhibition assay
- Format: biochemical
- conditions: 0.5 h, compound at 25 μM; percentage of enzyme activity
readout.name: remaining activity at 25 µM

chemical.string: COC(=O)c1ccc(O)c(N(C/C=C(\C)CCC=C(C)C)C/C=C(\C)CCC=C(C)C)c1
reported.result: 71.3%

chemical.string: COc1ccc(C(=O)NCCCO)cc1N(C/C=C(\C)CCC=C(C)C)C/C=C(\C)CCC=C(C)C
reported.result: 106%

chemical.string: COC(=O)c1ccc(O)c(N(CC=C(C)CCC=C(C)CCC=C(C)C)CC=C(C)CCC=C(C)CCC=C(C)C)c1
reported.result: 48.5%

---

- assayed.target: Recombinant human glycogen synthase kinase 3 beta (Homo sapiens)
- assay.comment: GSK-3 beta inhibition assay
- Format: biochemical
- conditions: 0.5 h, compound at 25 μM; percentage of enzyme activity
- Procedure: GSK-3 beta Inhibition Assay The GSK-3 beta activity of the compounds of formula (I) according to the present invention was determined by incubation of a mixture of recombinant human GSK-3 enzyme, a phosphate source and GSK-3 substrate in the presence and in the absence of the corresponding test compound, and by measuring the GSK-3 activity of this mixture. The compounds where tested at final concentrations of 25 and 50 μM. […]
Catalogue of remaining activity at 25 µM readings, one per entry.

compound: CCCOc1ccc(C(=O)OC)cc1N(C/C=C(\C)CC/C=C(\C)CCC=C(C)C)CCC
remaining activity at 25 µM / %: 79.6
--
compound: CC(C)=CCC/C(C)=C/CC/C(C)=C/CNc1cccc(C(=O)O)c1
remaining activity at 25 µM / %: 84.1
--
compound: CCC(C)Oc1ccc(C(=O)OC)cc1NCC=C(C)CCC=C(C)CCC=C(C)C (stereo not shown)
remaining activity at 25 µM / %: 111
--
compound: COC(=O)c1ccc(OC)c(N(CC=C(C)CCC=C(C)CCC=C(C)CCC=C(C)C)CC=C(C)CCC=C(C)CCC=C(C)CCC=C(C)C)c1
remaining activity at 25 µM / %: 105
--
compound: CCCOc1ccc(C(=O)OC)cc1NC/C=C(\C)CC/C=C(\C)CCC=C(C)C
remaining activity at 25 µM / %: 103
--
compound: COc1ccc(C(=O)O)cc1N(CC=C(C)CCC=C(C)CCC=C(C)C)CC=C(C)CCC=C(C)CCC=C(C)C
remaining activity at 25 µM / %: 30.6
--
compound: COC(=O)c1ccc(OC)c(N(C/C=C(\C)CC/C=C(\C)CCC=C(C)C)C/C=C(\C)CC/C=C(\C)CCC=C(C)C)c1
remaining activity at 25 µM / %: 56.6

---

- assayed.target: Recombinant human glycogen synthase kinase 3 beta (Homo sapiens, UniProt P49841)
- assay.comment: GSK-3 beta inhibition assay
- Assay type: biochemical
- conditions: 0.5 h, compound at 50 μM; percentage of enzyme activity
Items are presented alongside their recorded remaining activity at 50 µM.

compound: COC(=O)c1ccc(OC)c(N(CC=C(C)CCC=C(C)COC2CCCCO2)CC=C(C)CCC=C(C)COC2CCCCO2)c1 (centres unmarked)
assayed.target: Recombinant human glycogen synthase kinase 3 beta (Homo sapiens, UniProt P49841)
remaining activity at 50 µM [%]: 1.71

compound: COc1ccccc1NCC=C(C)CCC=C(C)CCC=C(C)C
assayed.target: Recombinant human glycogen synthase kinase 3 beta (Homo sapiens, UniProt P49841)
remaining activity at 50 µM [%]: 56.7

compound: CC(C)=CCC/C(C)=C/CN(C/C=C(\C)CCC=C(C)C)c1cccc(C(=O)O)c1
assayed.target: Recombinant human glycogen synthase kinase 3 beta (Homo sapiens, UniProt P49841)
remaining activity at 50 µM [%]: 24.6

compound: CC(C)=CCC/C(C)=C/CC/C(C)=C/CN(C/C=C(\C)CC/C=C(\C)CCC=C(C)C)c1cccc(C(=O)O)c1
assayed.target: Recombinant human glycogen synthase kinase 3 beta (Homo sapiens, UniProt P49841)
remaining activity at 50 µM [%]: 21.6

compound: CC(C)=CCC/C(C)=C/CC/C(C)=C/CNc1cc(C(=O)O)ccc1O
assayed.target: Recombinant human glycogen synthase kinase 3 beta (Homo sapiens, UniProt P49841)
remaining activity at 50 µM [%]: 97.9

compound: COc1ccc(C(=O)NCCc2c[nH]cn2)cc1N(C/C=C(\C)CCC=C(C)C)C/C=C(\C)CCC=C(C)C
assayed.target: Recombinant human glycogen synthase kinase 3 beta (Homo sapiens, UniProt P49841)
remaining activity at 50 µM [%]: 19.8

compound: COC(=O)c1ccc(OC)c(NCC=C(C)CCC=C(C)COC2CCCCO2)c1 (centres unmarked)
assayed.target: Recombinant human glycogen synthase kinase 3 beta (Homo sapiens, UniProt P49841)
remaining activity at 50 µM [%]: 80.1

compound: COc1ccc(C(=O)/N=C(\N)NCCO)cc1N(C/C=C(\C)CCC=C(C)C)C/C=C(\C)CCC=C(C)C
assayed.target: Recombinant human glycogen synthase kinase 3 beta (Homo sapiens, UniProt P49841)
remaining activity at 50 µM [%]: 19.1

---

- assayed.target: Recombinant human glycogen synthase kinase 3 beta (Homo sapiens, UniProt P49841)
- assay.comment: GSK-3 beta inhibition assay
- Assay type: biochemical
- conditions: 0.5 h, compound at 50 μM; percentage of enzyme activity
// boundary case: remaining activity at 50 µM equal to 40% maps to not met; strictly smaller maps to met

molecule: CCC(C)Oc1ccc(C(=O)OC)cc1NCC=C(C)CCC=C(C)CCC=C(C)C (stereo not shown)
class.label: not met
//
molecule: COc1ccc(C(=O)N2CCN(CC=Cc3ccccc3)CC2)cc1N(CC=C(C)CCC=C(C)C)CC=C(C)CCC=C(C)C
class.label: met
//
molecule: COC(=O)c1ccc(OC)c(N(CC=C(C)CCC=C(C)CCC=C(C)CCC=C(C)C)CC=C(C)CCC=C(C)CCC=C(C)CCC=C(C)C)c1
class.label: not met
//
molecule: COC(=O)c1cccc(N(CC=C(C)CCC=C(C)C)CC=C(C)CCC=C(C)C)c1
class.label: met
//
molecule: COC(=O)c1ccc(OC(C)=O)c(N(C/C=C(\C)CCC=C(C)C)C/C=C(\C)CCC=C(C)C)c1
class.label: met
//
molecule: COC(=O)c1ccc(OC)c(N(C/C=C(\C)CC/C=C(\C)CCC=C(C)C)C/C=C(\C)CC/C=C(\C)CCC=C(C)C)c1
class.label: met
//
molecule: COc1ccc(C(=O)N2CCN(CCO)CC2)cc1N(CC=C(C)CCC=C(C)C)CC=C(C)CCC=C(C)C
class.label: met
